Data origin, for the record: paper PMC11480844

B1: H2-Kb / E9 (parent)
chain 1: QQKVQQSPESLTVSEGAMASLNCTFSDRSSDNFRWYRQHSGKGLEVLVSIFSDGEKEEGSFTAHLNRASLHVFLHIREPQPSDSALYLCAVSRSSGSWQLIFGSGTQLTVMP
chain 2: NSGVVQSPRYIIKGKGERSILKCIPISGHLSVAWYQQTQGQELKFFIQHYDKMERDKGNLPSRFSVQQFDDYHSEMNMSALELEDSAVYFCASSRDSNNQAPLFGEGTRLSVL
chain 3: not shown
chain 4: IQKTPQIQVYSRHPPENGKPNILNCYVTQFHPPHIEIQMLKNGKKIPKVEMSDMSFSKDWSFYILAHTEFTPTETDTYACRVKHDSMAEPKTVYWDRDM
chain 5: SIINFEKL

# Variants of: B1
# assay-summary: % of reporter cells activated (NFAT-GFP), raw; also: test concentration or dose not given here
# particulars: with E9; scale: % of reporter cells activated
measured-endpoint: ratio to parent
Form field (numeric): enter value without unit.

Note to self: ratio to parent recorded for chain 5 S1K was 1.23

get_value(item= chain 5 E6M , readout=ratio to parent) returns 1.86

chain 5 F5C yielded ratio to parent of 1.95

Others:
Consider chain 5 N4Q . Its measured ratio to parent is 1.38

The variant identified as chain 5 K7W registered its ratio to parent at 1.38

ratio to parent recorded for this variant, chain 5 F5S , is 1.83

// recorded ratio to parent for chain 5 K7L : 2.01

# ratio to parent of chain 5 I2W = 1.86

Recorded result, chain 5 I3F , ratio to parent: 1.26
